Target: T1, recombinant mouse MAdCAM-1 (mouse, UniProt Q61826 22-365, limits assumed)
T1 construct: also called mMAdCAM-1; mouse MAdCAM-Fc
T1 sequence (looked up): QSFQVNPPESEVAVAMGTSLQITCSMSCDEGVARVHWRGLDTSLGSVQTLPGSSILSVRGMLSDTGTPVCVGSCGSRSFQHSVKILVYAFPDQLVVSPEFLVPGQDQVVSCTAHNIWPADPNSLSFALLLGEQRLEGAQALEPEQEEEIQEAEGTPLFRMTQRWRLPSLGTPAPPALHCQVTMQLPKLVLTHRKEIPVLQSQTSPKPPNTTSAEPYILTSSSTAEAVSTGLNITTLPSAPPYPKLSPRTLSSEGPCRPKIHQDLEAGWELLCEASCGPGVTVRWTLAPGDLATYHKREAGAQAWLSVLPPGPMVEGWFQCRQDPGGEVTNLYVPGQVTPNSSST
Test: Octet
Reported Property: binding result

MAdCAM Antibody Table 2 Clone 14 (antibody, human IgG1, V domains shown) VH: QVQLVQSGAEVKKPGSSVKVSCKASGYTFTNYYMHWVRQAPGQGLEWMGGIIPIVDGVKYAQKFQGRVTITADESTSTAYMELSSLRSEDTAVYYCAKGQFTGNYYYGMDYWGQGTLVTVSS VL: DIQMTQSPSSLSASVGDRVTITCQANQDISNYLNWYQQKPGKAPKLLIYRASKLEAGVPSRFSGSGSGTDFTLTISSLQPEDFATYYCQQSSEIPYSFGQGTKVEIK | no binding
MAdCAM Antibody Table 2 Clone 24 (antibody, human IgG1, V domains shown) VH: EVQLVESGGGLVKPGGSLRLSCAASGFTFSSYWMSWVRQAPGKGLEWVSRISSDGRITTYAAPVKGRFTISRDDSKNTLYLQMNSLKTEDTAVYYCARGTSYCTGGVCDIDYWGQGTLVTVSS VL: DIQMTQSPSSLSASVGDRVTITCRASQSIGRNLNWYQQKPGKAPKLLIYSASNLQSGVPSRFSGSGSGTDFTLTISSLQPEDFATYYCQQSYSIPLTFGPGTKVDIK | no binding
